Test system: Human PMNLs
Experiment Summary: Inhibition of human PMNLs aggregation (LTB4-induced)
Assay type: cell-based
Run Parameters: PMNL, LTB4 10^-8 M solution, 3 min preincubation at 37° C., pH 7.4
pIC50: −log10 of the molar value.
Measurement Name: pIC50

Solved entries (count: 3):
COc1ccc(/C=C/CCCCOc2cccc(OCCCC(=O)O)c2CCC(=O)O)cc1	5.22
COc1ccc(/C=C/CCCCOc2ccc(NC(=O)CCCC(=O)N(C)C)cc2CCC(=O)O)cc1	5.44
COc1ccc(/C=C/CCCCOc2cccc(C(O)CCCCC(=O)O)c2CCC(=O)O)cc1 (centres unmarked)	5.31

[1] COc1ccc(/C=C/CCCCOc2ccc(OCCCCC(=O)N(C)C)cc2CCC(=O)O)cc1
[2] COc1ccc(/C=C/CCCCOc2cccc(C(=O)CCCCC(=O)O)c2CCC(=O)O)cc1
[3] COc1ccc(/C=C/CCCCOc2cccc(CCCCCC(=O)N(C)C)c2CCC(=O)O)cc1
Q: Arrange the 3 molecules by rising pIC50, starting with the smallest. State the ranking by listing the labels in the requested order.
Ans: 1, 2, 3
(1: 5.15, 2: 5.77, 3: 6.09)
